proteins and their reported relative activity (initial increase in OD405)
molecular target: T1, Suc-AAPL-pNA; conditions: scale: relative to the substrate with the highest activity
T1 chain: AAPL
Please reply with the number alone, leaving off any unit.

Worked cases, answers included:
Lysyl endopeptidase from Achromobacter lyticus (protein) GVSGSCNIDVVCPEGDGRRDIIRAVGAYSKSGTLACTGSLVNNTANDRKMYFLTAHHCGMGTASTAASIVVYWNYQNSTCRAPNTPASGANGDGSMSQTQSGSTVKATYATSDFTLLELNNAANPAFNLFWAGWDRRDQNYPGAIAIHHPNVAEKRISNSTSPTSFVAWGGGAGTTHLNVQWQPSGGVTEPGSSGSPIYSPEKRVLGQLHGGPSSCSATGTNRSDQYGRVFTSWTGGGAAASRLSDWLDPASTGAQFIDGLDSGGGTP :: 0.0019
Glutamyl endopeptidase II sprE from Streptomyces griseus (protein) VLGGGAIYGGGSRCSAAFNVTKGGARYFVTAGHCTNISANWSASSGGSVVGVREGTSFPTNDYGIVRYTDGSSPAGTVDLYNGSTQDISSAANAVVGQAIKKSGSTTKVTSGTVTAVNVTVNYGDGPVYNMVRTTACSAGGDSGGAHFAGSVALGIHSGSSGCSGTAGSAIHQPVTEALSAYGVTVY :: 0
Thermostable alkaline protease BH0855 from Bacillus halodurans (protein) QTVPWGISFINTQQAHNRGIFGNGARVAVLDTGIASHPDLRIAGGASFISSEPSYHDNNGHGTHVAGTIAALNNSIGVLGVAPSADLYAVKVLDRNGSGSLASVAQGIEWAINNNMHIINMSLGSTSGSSTLELAVNRANNAGILLVGAAGNTGRQGVNYPARYSGVMAVAAVDQNGQRASFSTYGPEIEISAPGVNVNSTYTGNRYVSLSGTSMATPHVAGVAALVKSRYPSYTNNQIRQRINQTATYLGSPSLYGNGLVHAGRATQ :: 1
Serine protease bppB from Bacillus pumilus JA16 (protein) VVIGDDGRTKVTNTRVAPYNSIAYITFGGSSCTGTLIAPNKILTNGHCVYNTATRSYSAKGSVYPGMNDSTAVNGSANMTEFYVPSGYINTGASQYDFAVIKTDTNIGNTVGYRSIRQVTNLTGTTIKISGYPGDKMRSTGKVSQWEMSGPVTREDTNLAYYTIDTFSGNSGSAMLDQNQQIVGVHNAGYSNGTINGGPKATAAFVEFINYAKAQ :: 0.0005
Subtilisin Carlsberg from Bacillus licheniformis (protein) AQTVPYGIPLIKADKVQAQGFKGANVKVAVLDTGIQASHPDLNVVGGASFVAGEAYNTDGNGHGTHVAGTVAALDNTTGVLGVAPSVSLYAVKVLNSSGSGSYSGIVSGIEWATTNGMDVINMSLGGASGSTAMKQAVDNAYARGVVVVAAAGNSGSSGNTNTIGYPAKYDSVIAVGAVDSNSNRASFSSVGAELEVMAPGAGVYSTYPTNTYATLNGTSMASPHVAGAAALILSKHPNLSASQVRNRLSSTATYLGSSFYYGKGLINVEAAAQ :: 0.807

Recorded result, Serine protease from Nocardiopsis sp NRRL 18262 (protein) ADIIGGLAYTMGGRCSVGFAATNAAGQPGFVTAGHCGRVGTQVTIGNGRGVFEQSVFPGNDAAFVRGTSNFTLTNLVSRYNTGGYATVAGHNQAPIGSSVCRSGSTTGWHCGTIQARGQSVSYPEGTVTNMTRTTVCAEPGDSGGSYISGTQAQGVTSGGSGNCRTGGTTFYQEVTPMVNSWGVRLRT , relative activity (initial increase in OD405): 0.185

Recorded result, Glutamyl endopeptidase blaSE from Bacillus licheniformis (protein) SVIGSDDRTRVTNTTAYPYRAIVHISSSIGSCTGWMIGPKTVATAGHCIYDTSSGSFAGTATVSPGRNGTSYPYGSVKSTRYFIPSGWRSGNTNYDYGAIELSEPIGNTVGYFGYSYTTSSLVGTTVTISGYPGDKTAGTQWQHSGPIAISETYKLQYAMDTYGGQSGSPVFEQSSSRTNCSGPCSLAVHTNGVYGGSSYNRGTRITKEVFDNLTNWKNSAQ , relative activity (initial increase in OD405): 0.0027

Recorded result, Trypsin from Fusarium oxysporum (protein) IVGGTSASAGDFPFIVSISRNGGPWCGGSLLNANTVLTAAHCVSGYAQSGFQIRAGSLSRTSGGITSSLSSVRVHPSYSGNNNDLAILKLSTSIPSGGNIGYARLAASGSDPVAGSSATVAGWGATSEGGSSTPVNLLKVTVPIVSRATCRAQYGTSAITNQMFCAGVSSGGKDSCQGDSGGPIVDSSNTLIGAVSWGNGCARPNYSGVYASVGALRSFIDTYA , relative activity (initial increase in OD405): 0

Recorded result, Subtilisin 309 variant from Bacillus clausii (protein) AQSVPWGIERVQAPAAHNRGLTGSGVKVAVLDTGISTHPDLRIRGGASFVPGEPSTQDGNGHGTHVAGTIAALDNSIGVLGVAPSEALYAVKVLGASGSGSVSSIAQGLEWAGNNGMHVANLSLGSPSPSATLEQAVNSATSRGVLVVAASGNSGAGSISYPARYANAMAVGATDQNNNRASFSQYGAGLDIVAPGVNILSTWPGSTYASLNGTSMATPHVAGAAALVKQKNPSWSNVQIRNHLKNTATSLGDTWEYGSGLVNAEAATR , relative activity (initial increase in OD405): 0.17
